- testMethodNotes: Human hepatocyte clearance
- Type: in vitro ADME
- conditionLabel: hepatocytes
parameterMeasured: hepatocyte CLint

Problem: Determine from records and report hepatocyte CLint for `Cn1cc([C@H]2C[C@H]3CSC(N)=N[C@@]3(c3ccc(F)cc3F)CO2)cn1`
Result: < 6 µL/min/1e6 cells

---

- Test system: major CYP-P450s (1A2, 2C9, 2D6, 3A4, 2C8, 2C19)
- testMethodNotes: Multipoint cocktail DDI IC50 assay, major CYP-P450s
- Type: in vitro ADME
- conditionLabel: human, pooled human liver microsomes (HL-MIX-102), pH 7.4
parameterMeasured: IC50

Problem: Hello, please tell me recorded IC50 for this one: `Cc1coc([C@H]2C[C@H]3[C@@H](CF)SC(N)=N[C@@]3(c3ccc(F)cc3F)CO2)n1`
Result: > 30 µM
